ASSAYED SYSTEM: T1, recombinant human CD300LB overexpressed on Jurkat cells (human, UniProt A8K4G0 18-201)
T1 construct: also called huCD300LB; huCD300LB-expressing Jurkat cells
T1 sequence: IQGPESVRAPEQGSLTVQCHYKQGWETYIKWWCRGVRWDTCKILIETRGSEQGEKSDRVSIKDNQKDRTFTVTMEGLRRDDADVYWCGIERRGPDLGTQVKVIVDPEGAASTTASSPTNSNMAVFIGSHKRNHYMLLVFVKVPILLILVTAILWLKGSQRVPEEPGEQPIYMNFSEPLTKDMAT
METHOD: flow cytometry, stable Jurkat cells, supernatant or 10 ug/mL, isotype subtracted
PROPERTY MEASURED: gMFI (gMFI)
Entry rule: numbers only, all in gMFI.

anti-CD300LB antibody CD-18 (antibody, V domains shown) VH: DVQLQESGPDLVKPSQSLSLTCTVTGYSITSGYSWHWIRQFPDNKLEWMGYILSRGDTNFNPSLKSRISITRSTSNNQFFLHFNSVTTEDTATYYCARDFFDYWGQGTTLTVSS VL: DVLMTQTPLSLPVSLGDQASISCRSSQSIVHSNGNTYLEWYLQKPGQSPKLLIYKVSDRFSGVPDRFSGSGSGTDFTLKISRVEAEDLGVYFCFQGSHVPYTFGGGTKLEIK : 114

What value of gMFI has been reported for the following binder? anti-CD300LB antibody CD-17 (antibody, V domains shown) VH: QIQLVQSGPELKKPGETVKISCKASGYTLTDYSMHWVKQAPGKGLKWMGWINTETGEPRYGDDFKGRFAFSLETSASSAYLQINNLKNDDTATYFCATYGRSYGMDFWGQGTSVTVSS VL: DIVLTQSPASLAVSLGQRATISCRASKSVSPSGHSYMHWYQQKPGQPPKLLIYLASNLKSGVPARFSGSGSGTDFTLNIHPVEEGDAATYYCQHNRELPPTFGGGSKLEIK 13
